Recorded values, source patent US20260250325A1.

# key: entry, value: log10 EC50 (nM), plaque reduction, hMPV B1, Vero cells
Substrate: F protein of hMPV virus strain B1 (human metapneumovirus, strain B1)
Assay: cell-based or functional assay
reported-property: log10 EC50 (nM), plaque reduction, hMPV B1, Vero cells (log10 of the value in nM)

{"binder": "WDEFDASISQVNEKINQSLEEIRKSDELLHNVNALEAAAKK (modifications not checked) [Compound 38]", "observed-measurement": 1.22}
{"binder": "WDEFDASISQVNEKINQSLEEIRKSDELLHNEAAAKK (modifications not checked) [Compound 45]", "observed-measurement": 1.12}
{"binder": "FDASIEEVNRRIEESLRRIEESDRRLEEVNAEAAAKK (modifications not checked) [Compound 42]", "observed-measurement": 1.00}
{"binder": "FDEEISQVNEKINQSLAFIRKSDELLHNVNAGKSTTEAAAKK (modifications not checked) [Compound 26]", "observed-measurement": 0.45}
{"binder": "DEFDASISQVNEKINQSLEEIRKSDELLHNEAAAKK (modifications not checked) [Compound 28]", "observed-measurement": 1.14}
{"binder": "YDELVFDASQVNEKINQSLEKIRKSDELLHNVGSGSGK (modifications not checked) [Compound 25]", "observed-measurement": 1.58}
{"binder": "YDELVFDASQVNEKINQSLEKIRKSDELLHNVEAAAKK (modifications not checked) [Compound 30]", "observed-measurement": 1.71}
{"binder": "SDEFDKKIEEVNKKIEESLKKIEESDKKLEAAAKK (modifications not checked) [Compound 16]", "observed-measurement": 0.65}
